All values here come from the supplement of paper PMC5998384.

Quick reference for solubility in G1/S (log2) among some sequences
System: HeLa Kyoto;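 also: HeLa Kyoto cells arrested at G1/S by double thymidine block, proteins quantified by TMT10plex mass spectrometry in mild NP-40 versus SDS extracts, three biological replicates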
method summary: solubility in G1/S (NP-40 vs SDS abundance) (log2 ratio); higher = more soluble
measurement parameters: cell cycle stage: G1/S
# print the numeric value only

{"columns": ["residue sequence", "readout number"],
 "data": [
  ["MDGTRTSLDIEEYSDTEVQKNQVLTLEEWQDKWVNGKTAFHQEQGHQLLKKHLDTFLKGKSGLRVFFPLCGKAVEMKWFADRGHSVVGVEISELGIQEFFTEQNLSYSEEPITEIPGTKVFKSSSGNISLYCCSIFDLPRTNIGKFDMIWDRGALVAINPGDRKCYADTMFSLLGKKFQYLLCVLSYDPTKHPGPPFYVPHAEIERLFGKICNIRCLEKVDAFEERHKSWGIDCLFEKLYLLTEK [TPMT]", 0.0374],
  ["MSRRRFDCRSISGLLTTTPQIPIKMENFNNFYILTSKELGRGKFAVVRQCISKSTGQEYAAKFLKKRRRGQDCRAEILHEIAVLELAKSCPRVINLHEVYENTSEIILILEYAAGGEIFSLCLPELAEMVSENDVIRLIKQILEGVYYLHQNNIVHLDLKPQNILLSSIYPLGDIKIVDFGMSRKIGHACELREIMGTPEYLAPEILNYDPITTATDMWNIGIIAYMLLTHTSPFVGEDNQETYLNISQVNVDYSEETFSSVSQLATDFIQSLLVKNPEKRPTAEICLSHSWLQQWDFENLFHPEETSSSSQTQDHSVRSSEDKTSKSSCNGTCGDREDKENIPEDSSMVSKRFRFDDSLPNPHELVSDLLC [STK17B]", 0.0558]
]}

Read the next record carefully.
Tell me its solubility in G1/S (log2) given MDPFLVLLHSVSSSLSSSELTELKFLCLGRVGKRKLERVQSGLDLFSMLLEQNDLEPGHTELLRELLASLRRHDLLRRVDDFEAGAAAGAAPGEEDLCAAFNVICDNVGKDWRRLARQLKVSDTKIDSIEDRYPRNLTERVRESLRIWKNTEKENATVAHLVGALRSCQMNLVADLVQEVQQARDLQNRSGAMSPMSWNSDASTSEAS [FADD] as the entry.
-0.257
